Listing: inhibition of selected compounds
molecular target: Glucose transporter (Leishmania mexicana); experiment: ST_JUDE_LEISH: Cytotoxicity at 2uM final concentration against transgenic Leishmania Mexicana promastigotes LmGT2 that are glucose transport deficient and complemented with the L. Mexicana glucose transporter 2. Activity is measured by DNA content using SYBR green in vitro; assay type: functional
Could you write the number and then its unit?

Some compounds with recorded inhibition:
# COMPOUND, VALUE MEASURED
rows = [
    ("CC1CCN(C(=O)[C@H](Cc2c[nH]c3ccccc23)NS(=O)(=O)c2ccc(Cl)cc2)CC1", "13.7%"),
    ("Cc1cc(Nc2ccncc2)n2nc(C)c(-c3ccccc3Cl)c2n1", "6.28%"),
    ("NC(=O)c1sc(-n2cnc3ccc(OCC4CCNCC4)cc32)cc1OCc1ccccc1C(F)(F)F", "0.31%"),
    ("COc1ccc(Cc2c(C)nc3nc(N)nc(N)c3c2C)cc1OC", "12.1%"),
    ("COc1ccc2c(=O)c(I)c(C)[nH]c2c1", "-3.12%"),
]

QUERY: Answer briefly: inhibition recorded on Glucose transporter (Leishmania mexicana) for CN(C)c1ccc(-c2cscc2C(=O)NC2CCCN(Cc3cccnc3)C2)cc1 (stereo not given)
RESULT: -0.28%

QUERY: Answer briefly: inhibition recorded on Glucose transporter (Leishmania mexicana) for CCCCCCCNC(=O)NCC1CCCN(CCCCCNC(=O)/C=C/c2ccc(Cl)c(Cl)c2)C1 (stereo not given)
RESULT: 2.15%

QUERY: Answer briefly: inhibition recorded on Glucose transporter (Leishmania mexicana) for CC(=O)c1cccc(NC(=O)c2ccc(Cl)c(S(=O)(=O)N3CCc4ccccc43)c2)c1
RESULT: 12%

QUERY: Answer briefly: inhibition recorded on Glucose transporter (Leishmania mexicana) for CC1CCCN1Cc1cccc(-c2ccc(C(=O)NCCOc3ccccc3)s2)c1 (stereo not given)
RESULT: 25.7%

QUERY: Answer briefly: inhibition recorded on Glucose transporter (Leishmania mexicana) for CO/C(=C\C=C\c1cc2cc(Cl)c(Cl)cc2[nH]1)C(=O)NCC(C)(C)CN(C)C
RESULT: 1.65%

QUERY: Answer briefly: inhibition recorded on Glucose transporter (Leishmania mexicana) for CCCCc1cc(NC2CCN(C)CC2)nc(Nc2ccccc2)n1
RESULT: 8.76%

QUERY: Answer briefly: inhibition recorded on Glucose transporter (Leishmania mexicana) for CC(C)Nc1nc(NCCc2c[nH]cn2)nc(NCc2ccc(Cl)c(Cl)c2)n1
RESULT: -0.25%

QUERY: Answer briefly: inhibition recorded on Glucose transporter (Leishmania mexicana) for CCC(=O)Nc1cc(=O)[nH]c2nc(-c3ccc(Cl)cc3)nn12
RESULT: -2.81%

QUERY: Answer briefly: inhibition recorded on Glucose transporter (Leishmania mexicana) for Cc1cccc2nc(-c3ccc(-c4cccc(CN5CCCC(O)C5)c4)s3)[nH]c12 (stereo not given)
RESULT: 2.93%

QUERY: Answer briefly: inhibition recorded on Glucose transporter (Leishmania mexicana) for Brc1ccc(Nc2ccnc3cc(-c4nccs4)ccc23)cc1Oc1ccnc2cc(-c3nccs3)ccc12
RESULT: -0.86%

QUERY: Answer briefly: inhibition recorded on Glucose transporter (Leishmania mexicana) for COc1cc2nc(N(C)CC3COc4ccccc4O3)nc(N)c2cc1OC (stereo not given)
RESULT: -0.97%

QUERY: Answer briefly: inhibition recorded on Glucose transporter (Leishmania mexicana) for CC[C@H](NC(=O)c1c(CN2CCC(N3CCCCC3)CC2)c(-c2ccccc2)nc2cc(O)ccc12)c1ccccc1
RESULT: 1.08%

QUERY: Answer briefly: inhibition recorded on Glucose transporter (Leishmania mexicana) for CCN1CCN(CCCNc2c3ccc(Cl)cc3nc3ccc(OC)cc23)CC1
RESULT: 8.38%

QUERY: Answer briefly: inhibition recorded on Glucose transporter (Leishmania mexicana) for Cc1noc(C)c1-c1cccc(CNCc2ccc(-c3ccc(-c4nc5cc(C(F)(F)F)ccc5[nH]4)cc3)cc2)c1
RESULT: 4.2%

QUERY: Answer briefly: inhibition recorded on Glucose transporter (Leishmania mexicana) for N#Cc1cccc(C(=O)Nc2cccc(-c3cccc(CN4CCNCC4)c3)c2)c1
RESULT: 3.25%
